- Substrate: C[C@H](NC(=O)CCC(=O)O)C(=O)N[C@@H](C)C(=O)N1CCC[C@H]1C(=O)N[C@@H](Cc1ccccc1)C(=O)Nc1ccc([N+](=O)[O-])cc1
- ASSAY TEXT: Kinetic parameters for hydrolysis of synthetic peptide substrate
- Format: biochemical, Bacillus lentus
- EXPERIMENTAL SETUP: other: Table III, 0.1 M Tris-HCL buffer, pH 8.6, 25° C.
Listed below: kcat/Km values for each entry.
METRIC NAME: kcat/Km (M⁻¹ s⁻¹)

>>> val("Bacillus lentus subtilisin variant N76D/N123S (Protease #6) (Lederbergia lenta; N121S/N74D) (protein, The mature subtilisin protein is coded by the codons beginning at the codon GCG (334-336) corresponding to Ala; made in house; host or cells: Bacillus subtilis) AQSVPWGISRVQAPAAHNRGLTGSGVKVAVLDTGISTHPDLNIRGGASFVPGEPSTQDGNGHGTHVAGTIAALDNSIGVLGVAPSAELYAVKVLGASGSGSVSSIAQGLEWAGNNGMHVASLSLGSPSPSATLEQAVNSATSRGVLVVAASGNSGAGSISYPARYANAMAVGATDQNNNRASFSQYGAGLDIVAPGVNVQSTYPGSTYASLNGTSMATPHVAGAAALVKQKNPSWSNVQIRNHLKNTATSLGSTNLYGSGLVNAEAATR")
64000
>>> val("Bacillus lentus subtilisin variant N76D/I107V (Protease #5) (Lederbergia lenta; I105V/N74D) (protein, The mature subtilisin protein is coded by the codons beginning at the codon GCG (334-336) corresponding to Ala; made in house; host or cells: Bacillus subtilis) AQSVPWGISRVQAPAAHNRGLTGSGVKVAVLDTGISTHPDLNIRGGASFVPGEPSTQDGNGHGTHVAGTIAALDNSIGVLGVAPSAELYAVKVLGASGSGSVSSVAQGLEWAGNNGMHVANLSLGSPSPSATLEQAVNSATSRGVLVVAASGNSGAGSISYPARYANAMAVGATDQNNNRASFSQYGAGLDIVAPGVNVQSTYPGSTYASLNGTSMATPHVAGAAALVKQKNPSWSNVQIRNHLKNTATSLGSTNLYGSGLVNAEAATR")
199000
>>> val("Bacillus lentus subtilisin variant N76D/S101R (Protease #2) (Lederbergia lenta; N74D/S99R) (protein, The mature subtilisin protein is coded by the codons beginning at the codon GCG (334-336) corresponding to Ala; made in house; host or cells: Bacillus subtilis) AQSVPWGISRVQAPAAHNRGLTGSGVKVAVLDTGISTHPDLNIRGGASFVPGEPSTQDGNGHGTHVAGTIAALDNSIGVLGVAPSAELYAVKVLGASGRGSVSSIAQGLEWAGNNGMHVANLSLGSPSPSATLEQAVNSATSRGVLVVAASGNSGAGSISYPARYANAMAVGATDQNNNRASFSQYGAGLDIVAPGVNVQSTYPGSTYASLNGTSMATPHVAGAAALVKQKNPSWSNVQIRNHLKNTATSLGSTNLYGSGLVNAEAATR")
285000
>>> val("Bacillus lentus subtilisin variant N76D/S103A (Protease #3) (Lederbergia lenta; N74D/S101A) (protein, The mature subtilisin protein is coded by the codons beginning at the codon GCG (334-336) corresponding to Ala; made in house; host or cells: Bacillus subtilis) AQSVPWGISRVQAPAAHNRGLTGSGVKVAVLDTGISTHPDLNIRGGASFVPGEPSTQDGNGHGTHVAGTIAALDNSIGVLGVAPSAELYAVKVLGASGSGAVSSIAQGLEWAGNNGMHVANLSLGSPSPSATLEQAVNSATSRGVLVVAASGNSGAGSISYPARYANAMAVGATDQNNNRASFSQYGAGLDIVAPGVNVQSTYPGSTYASLNGTSMATPHVAGAAALVKQKNPSWSNVQIRNHLKNTATSLGSTNLYGSGLVNAEAATR")
286000
>>> val("Bacillus lentus subtilisin variant N76D/V104I (Protease #4) (Lederbergia lenta; N74D/V102I) (protein, The mature subtilisin protein is coded by the codons beginning at the codon GCG (334-336) corresponding to Ala; made in house; host or cells: Bacillus subtilis) AQSVPWGISRVQAPAAHNRGLTGSGVKVAVLDTGISTHPDLNIRGGASFVPGEPSTQDGNGHGTHVAGTIAALDNSIGVLGVAPSAELYAVKVLGASGSGSISSIAQGLEWAGNNGMHVANLSLGSPSPSATLEQAVNSATSRGVLVVAASGNSGAGSISYPARYANAMAVGATDQNNNRASFSQYGAGLDIVAPGVNVQSTYPGSTYASLNGTSMATPHVAGAAALVKQKNPSWSNVQIRNHLKNTATSLGSTNLYGSGLVNAEAATR")
417000
>>> val("Bacillus lentus subtilisin variant N76D/S99D/S101R (Protease #7) (Lederbergia lenta; N74D/S97D/S99R) (protein, The mature subtilisin protein is coded by the codons beginning at the codon GCG (334-336) corresponding to Ala; made in house; host or cells: Bacillus subtilis) AQSVPWGISRVQAPAAHNRGLTGSGVKVAVLDTGISTHPDLNIRGGASFVPGEPSTQDGNGHGTHVAGTIAALDNSIGVLGVAPSAELYAVKVLGADGRGSVSSIAQGLEWAGNNGMHVANLSLGSPSPSATLEQAVNSATSRGVLVVAASGNSGAGSISYPARYANAMAVGATDQNNNRASFSQYGAGLDIVAPGVNVQSTYPGSTYASLNGTSMATPHVAGAAALVKQKNPSWSNVQIRNHLKNTATSLGSTNLYGSGLVNAEAATR")
384000
